- method: Storage stability of the TSS-100 solution, visual observation
- Assay type: physicochemical
- run conditions: solution in Duranate TSS-100 stored at room temperature for 10 days, visually observed

molecule: C=CC(=O)OCCNC(=O)Oc1c(-c2cccc3c2sc2ccccc23)cc(-c2cccc3c2sc2ccccc23)cc1-c1cccc2c1sc1ccccc12
Storage Stability: ◯
//
molecule: C=CC(=O)Oc1c(-c2cccc3c2sc2ccccc23)cc(-c2cccc3c2sc2ccccc23)cc1-c1cccc2c1sc1ccccc12 [Compound R-2, reference compound]
Storage Stability: Δ
//
molecule: C=C(C)C(=O)OCCNC(=O)Oc1c(-c2cc3ccccc3c3ccccc23)cc(-c2cc3ccccc3c3ccccc23)cc1-c1cc2ccccc2c2ccccc12
Storage Stability: ◯
//
molecule: C=C(C)C(=O)OCCNC(=O)Oc1c(-c2ccc3ccccc3c2)cc(-c2ccc3ccccc3c2)cc1-c1ccc2ccccc2c1
Storage Stability: ◯
//
molecule: C=CC(=O)OCCCOc1c(-c2cc3ccccc3c3ccccc23)cc(-c2cc3ccccc3c3ccccc23)cc1-c1cc2ccccc2c2ccccc12
Storage Stability: ◯
//
molecule: C=CC(=O)OCCNC(=O)OCCOc1c(-c2cc3ccccc3c3ccccc23)cc(-c2cc3ccccc3c3ccccc23)cc1-c1cc2ccccc2c2ccccc12
Storage Stability: ◯

###

- method: Storage stability of the TSS-100 solution, visual observation
- Format: physicochemical
- run conditions: solution in Duranate TSS-100 stored at room temperature for 10 days, visually observed
measure name: Storage Stability

molecule: C=CC(=O)OCCOc1c(-c2cc3ccccc3c3ccccc23)cc(-c2cc3ccccc3c3ccccc23)cc1-c1cc2ccccc2c2ccccc12 [Compound M-10]
measure name: Storage Stability
value observed: ◯
//
molecule: C=C(C)C(=O)OCCOCCNC(=O)Oc1c(-c2cc3ccccc3c3ccccc23)cc(-c2cc3ccccc3c3ccccc23)cc1-c1cc2ccccc2c2ccccc12 [Compound M-6]
measure name: Storage Stability
value observed: ◯
//
molecule: C=C(C)C(=O)OCCNC(=O)OCCOc1c(-c2cc3ccccc3c3ccccc23)cc(-c2cc3ccccc3c3ccccc23)cc1-c1cc2ccccc2c2ccccc12 [Compound M-8]
measure name: Storage Stability
value observed: ◯
//
molecule: C=C(C)C(=O)OCCOCCNC(=O)OCCOc1c(-c2cc3ccccc3c3ccccc23)cc(-c2cc3ccccc3c3ccccc23)cc1-c1cc2ccccc2c2ccccc12 [Compound M-9]
measure name: Storage Stability
value observed: ◯
//
molecule: C=CC(=O)OCCNC(=O)Oc1c(-c2cc3ccccc3c3ccccc23)cc(-c2cc3ccccc3c3ccccc23)cc1-c1cc2ccccc2c2ccccc12 [Compound M-4]
measure name: Storage Stability
value observed: ◯
//
molecule: C=CC(=O)OCCNC(=O)Oc1ccc(-c2cccc3c2sc2ccccc23)cc1-c1cccc2c1sc1ccccc12 [Compound R-1, reference compound]
measure name: Storage Stability
value observed: Δ
//
molecule: C=C(C)C(=O)OCCNC(=O)Oc1c(-c2cccc3c2sc2ccccc23)cc(-c2cccc3c2sc2ccccc23)cc1-c1cccc2c1sc1ccccc12 [Compound M-1]
measure name: Storage Stability
value observed: ◯

###

- method: Refractive index measurement of polymerizable monomer (Kalnew precision refractometer)
- Format: physicochemical
- run conditions: 23° C., helium lamp d-line (587.6 nm); calculated for 100% by mass from calibration curve of 10 and 20% by mass test solutions

molecular string: C=CC(=O)OCCNC(=O)Oc1c(-c2cc3ccccc3c3ccccc23)cc(-c2cc3ccccc3c3ccccc23)cc1-c1cc2ccccc2c2ccccc12
Refractive Index: 1.6894
--
molecular string: C=CC(=O)OCCOc1c(-c2cc3ccccc3c3ccccc23)cc(-c2cc3ccccc3c3ccccc23)cc1-c1cc2ccccc2c2ccccc12
Refractive Index: 1.7323
--
molecular string: C=C(C)C(=O)OCCNC(=O)Oc1c(-c2cc3ccccc3c3ccccc23)cc(-c2cc3ccccc3c3ccccc23)cc1-c1cc2ccccc2c2ccccc12
Refractive Index: 1.6898
--
molecular string: C=C(C)C(=O)OCCOCCNC(=O)OCCOc1c(-c2cc3ccccc3c3ccccc23)cc(-c2cc3ccccc3c3ccccc23)cc1-c1cc2ccccc2c2ccccc12
Refractive Index: 1.6975
--
molecular string: C=C(C)C(=O)OCCOCCNC(=O)Oc1c(-c2cc3ccccc3c3ccccc23)cc(-c2cc3ccccc3c3ccccc23)cc1-c1cc2ccccc2c2ccccc12
Refractive Index: 1.7013
--
molecular string: C=CC(=O)OCCNC(=O)OCCOc1c(-c2cc3ccccc3c3ccccc23)cc(-c2cc3ccccc3c3ccccc23)cc1-c1cc2ccccc2c2ccccc12
Refractive Index: 1.7104

###

Entries and their measured Refractive Index follow.
- method: Refractive index measurement of polymerizable monomer (Kalnew precision refractometer)
- Assay type: physicochemical
- run conditions: 23° C., helium lamp d-line (587.6 nm); calculated for 100% by mass from calibration curve of 10 and 20% by mass test solutions
measure name: Refractive Index

compound: C=C(C)C(=O)OCCNC(=O)Oc1c(-c2ccc3ccccc3c2)cc(-c2ccc3ccccc3c2)cc1-c1ccc2ccccc2c1 [Compound M-5]
measure name: Refractive Index
value observed: 1.6798
//
compound: C=C(C)C(=O)OCCNC(=O)OCCOc1c(-c2cc3ccccc3c3ccccc23)cc(-c2cc3ccccc3c3ccccc23)cc1-c1cc2ccccc2c2ccccc12 [Compound M-8]
measure name: Refractive Index
value observed: 1.7042
//
compound: C=C(C)C(=O)OCCNC(=O)Oc1c(-c2cccc3c2sc2ccccc23)cc(-c2cccc3c2sc2ccccc23)cc1-c1cccc2c1sc1ccccc12 [Compound M-1]
measure name: Refractive Index
value observed: 1.6818
//
compound: C=CC(=O)Oc1c(-c2cccc3c2sc2ccccc23)cc(-c2cccc3c2sc2ccccc23)cc1-c1cccc2c1sc1ccccc12 [Compound R-2, reference compound]
measure name: Refractive Index
value observed: 1.7056
//
compound: C=CC(=O)OCCCOc1c(-c2cc3ccccc3c3ccccc23)cc(-c2cc3ccccc3c3ccccc23)cc1-c1cc2ccccc2c2ccccc12 [Compound M-11]
measure name: Refractive Index
value observed: 1.7316
//
compound: C=CC(=O)OCCNC(=O)Oc1ccc(-c2cccc3c2sc2ccccc23)cc1-c1cccc2c1sc1ccccc12 [Compound R-1, reference compound]
measure name: Refractive Index
value observed: 1.6762
//
compound: C=CC(=O)OCCNC(=O)Oc1c(-c2cccc3c2sc2ccccc23)cc(-c2cccc3c2sc2ccccc23)cc1-c1cccc2c1sc1ccccc12 [Compound M-3]
measure name: Refractive Index
value observed: 1.6891
